Assay: Cytotoxicity against rat R28 cells assessed as decrease in cellular ATP content incubated for 24 hrs by CellTiter-Lumi Plus cell viability assay
Type: toxicity, cell-based
Conditions: r28, 24 h

>  <smiles.repr>
CC(C)(O)[C@H]1CC[C@@](C)([C@H]2CC[C@]3(C)[C@@H]2[C@H](O)C[C@@H]2[C@@]4(C)Cc5c(C(=O)Nc6ccc(N)cc6)noc5C(C)(C)[C@@H]4CC[C@]23C)O1

>  <Activity>
Non-Toxic

$$$$
>  <smiles.repr>
CC(C)(O)[C@@H]1CC[C@@](C)([C@H]2CC[C@]3(C)[C@@H]2[C@H](O)C[C@@H]2[C@@]4(C)CC[C@H](OC(=O)CCC(=O)Nc5cccc(N)c5)C(C)(C)[C@@H]4CC[C@]23C)O1

>  <Activity>
Non-Toxic

$$$$
>  <smiles.repr>
CC(C)(O)[C@@H]1CC[C@@](C)([C@H]2CC[C@]3(C)[C@@H]2[C@H](O)C[C@@H]2[C@@]4(C)Cc5sc(NC(=O)CCCC(=O)O)nc5C(C)(C)[C@@H]4CC[C@]23C)O1

>  <Activity>
Non-Toxic

$$$$
>  <smiles.repr>
CC(C)(O)[C@H]1CC[C@@](C)([C@H]2CC[C@]3(C)[C@@H]2[C@H](O)C[C@@H]2[C@@]4(C)Cc5sc(NC(=O)CC(=O)O)nc5C(C)(C)[C@@H]4CC[C@]23C)O1

>  <Activity>
Non-Toxic

$$$$

* * *

Test: Cytotoxicity against rat R28 cells assessed as decrease in cellular ATP content incubated for 24 hrs by CellTiter-Lumi Plus cell viability assay
Format: toxicity, cell-based
Details: r28, 24 h

>  <smiles.repr>
CC(C)(O)[C@@H]1CC[C@@](C)([C@H]2CC[C@]3(C)[C@@H]2[C@H](O)C[C@@H]2[C@@]4(C)Cc5c(C(=O)O)noc5C(C)(C)[C@@H]4CC[C@]23C)O1

>  <Activity>
Non-Toxic

$$$$
>  <smiles.repr>
CC(C)(O)[C@H]1CC[C@@](C)([C@H]2CC[C@]3(C)[C@@H]2[C@H](O)C[C@@H]2[C@@]4(C)Cc5c(C(=O)O)noc5C(C)(C)[C@@H]4CC[C@]23C)O1

>  <Activity>
Non-Toxic

$$$$
>  <smiles.repr>
CC(C)(O)[C@@H]1CC[C@@](C)([C@H]2CC[C@]3(C)[C@@H]2[C@H](O)C[C@@H]2[C@@]4(C)Cc5c(C(=O)NCCCCCCN)noc5C(C)(C)[C@@H]4CC[C@]23C)O1

>  <Activity>
Non-Toxic

$$$$
